The entries below are paired with their reported z-score.
- protocol_text: inhibitors of hydroxyurea-induced Chk1 phosphorylation, primary screen, imaging, HeLa, phospho-Chk1 antibody, percent positive cells (AID 1186)
- condition_notes: hydroxyurea-induced phospho-Chk1 immunofluorescence imaging, higher = more signal

molecule: CCCC/C=C/[C@H]([C@@H](O)Cc1ccccc1)N(CC#Cc1ccccc1)Cc1ccccc1Br
z-score: -0.138
//
molecule: O=C1c2ccccc2[C@](Cc2ccccc2I)(C(=O)NCc2ccccc2)[C@H](c2ccc(CO)cc2)N1Cc1ccccc1C(F)(F)F
z-score: -0.361
//
molecule: C=CC[C@@]1(C(=O)N2CCOCC2)N=C(c2ccc(OCCCO)cc2)O[C@@H]1c1ccccc1
z-score: -0.648
//
molecule: O=C1C[C@@](C(=O)NC2CC2)(c2ccc([N+](=O)[O-])cc2)[C@@H](c2ccc(CO)cc2I)N1CC12CC3CC(CC(C3)C1)C2
z-score: -0.174
//
molecule: O=C1OCCC=C[C@H]2OC34C=CCN(Cc5ccccc5)C(=O)[C@H]3N(CCO)C(=O)[C@@H]4C12 (stereo partly drawn)
z-score: -0.618
//
molecule: C=C[C@H](OC)[C@@H](OC(=O)Nc1ccc(SC)cc1)c1ccc(O)c(F)c1
z-score: -1.07
//
molecule: C#C[C@H](O[Si](C#Cc1ccccc1)(C(C)C)C(C)C)c1ccccc1
z-score: 0.116
//
molecule: C[C@@H]1NC(=O)[C@H](Cc2ccccc2)NC(=O)[C@@]23C(=O)N[C@@H](Cc4ccccc4)C2[C@H](C)[C@@]2(C)O[C@H]2C3/C=C/C/C=C\CNC1=O (stereo partly drawn)
z-score: 0.4
